Ref: patent US11584747B2

- Experimental Target: human DGKζ (Homo sapiens (Human), UniProt Q13574)
- Sequence (Q13574 other isoform, or with tags, fused parts or gaps): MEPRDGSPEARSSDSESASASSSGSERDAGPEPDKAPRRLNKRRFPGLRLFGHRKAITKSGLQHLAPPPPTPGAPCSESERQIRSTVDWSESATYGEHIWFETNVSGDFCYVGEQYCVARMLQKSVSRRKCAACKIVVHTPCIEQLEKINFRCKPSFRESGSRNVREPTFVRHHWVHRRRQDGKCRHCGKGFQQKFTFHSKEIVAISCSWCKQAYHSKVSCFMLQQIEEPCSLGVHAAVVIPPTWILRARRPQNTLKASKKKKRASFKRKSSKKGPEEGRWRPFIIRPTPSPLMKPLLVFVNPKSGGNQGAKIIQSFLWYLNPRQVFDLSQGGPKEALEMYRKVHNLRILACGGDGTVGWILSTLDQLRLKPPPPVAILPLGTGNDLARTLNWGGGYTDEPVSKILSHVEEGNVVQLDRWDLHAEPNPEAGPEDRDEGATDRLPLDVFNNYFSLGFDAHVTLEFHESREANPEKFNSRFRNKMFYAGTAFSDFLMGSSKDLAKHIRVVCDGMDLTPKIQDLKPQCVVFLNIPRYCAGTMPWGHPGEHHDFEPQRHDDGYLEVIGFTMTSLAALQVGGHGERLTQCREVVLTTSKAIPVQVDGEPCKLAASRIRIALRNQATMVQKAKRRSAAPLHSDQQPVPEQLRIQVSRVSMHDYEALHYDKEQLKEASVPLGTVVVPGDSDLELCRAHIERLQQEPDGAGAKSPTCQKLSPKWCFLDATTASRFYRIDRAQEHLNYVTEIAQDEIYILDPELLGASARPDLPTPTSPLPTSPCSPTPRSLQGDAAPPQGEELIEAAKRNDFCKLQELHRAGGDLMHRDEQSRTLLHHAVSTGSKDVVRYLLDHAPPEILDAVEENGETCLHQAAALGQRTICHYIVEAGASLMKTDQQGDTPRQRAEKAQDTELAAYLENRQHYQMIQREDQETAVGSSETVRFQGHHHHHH
- Procedure Details: DGKζ LIPGLO assay (extruded liposome substrate, ADP-Glo luminescence)
- Format: biochemical
- Recorded Conditions: liposome (LIPGLO) assay; read-out: DGK zeta (liposome assay) IC50
pIC50: −log10 of the molar value.
Readout: pIC50

Compound	Measured Result
CC[C@@H]1CN(c2nc(=O)n(C)c3ccc(C#N)nc23)[C@@H](C)CN1C(C)c1ccc(C(F)(F)F)c(CN(C)C)c1 (stereo partly drawn)	5.57

[1] CC[C@@H]1CN(c2nc(=O)n(C)c3ccc(C#N)nc23)[C@@H](C)CN1C(C)c1ccc(C2CCOCC2)cc1 (stereo partly drawn) [Example 330]
[2] CCOc1ccc2c(n1)c(N1C[C@@H](CC)N(C(CC)c3ccc(C(F)(F)F)cc3)C[C@@H]1CC)nc(=O)n2C (stereo partly drawn) [Example 438]
[3] CCC(c1ccc(Br)cc1)N1C[C@H](C)N(c2nc(=O)n(C)c3ccc(C#N)nc23)C[C@H]1CC (stereo partly drawn) [Example 321]
[4] CC[C@H]1CN(C(C)c2ccc(C(F)(F)F)cc2)[C@H](CC)CN1c1nc(=O)n(C)c2ccc(COC)nc12 (single isomer, unassigned) [Example 424]
[5] CC(c1ccc(OC(C)(C)C#N)cc1)N1C[C@H](C)N(c2nc(=O)n(C)c3ccc(C#N)nc23)C[C@H]1C (stereo partly drawn) [Example 376]
IN: # desc sort on pIC50 across 5 compounds // ordering of labels required in reply
OUT: 3, 5, 1, 4, 2
(3: 7.42, 5: 7.01, 1: 5.55, 4: 5.34, 2: 3.60)
